Cited source: ChEMBL document CHEMBL4406889

- procedureSummary: in vitro
- measurementContext: PAMPA, pH 7.4
- Description: Permeability of compound at pH 7.4 by PAMPA assay
measuredAttribute: Papp
Write the numeric value and append its unit.

Data point: CC(=O)NC(C)c1ccc2nc(-c3ccc(Oc4cccc(OCC5CC5)c4)nc3)oc2c1 (stereo unspecified) ; Papp = 33.7 ×10⁻⁶ cm/s

---

- procedureSummary: in vivo
- measurementContext: ICR, mouse, po, 1 mg/kg
measuredAttribute: AUC(0-t) at 8 h (ng·h/mL)
API: value field is a number in ng·h/mL; no unit string.

Quick note, AUC(0-t) at 8 h for CC(=O)NC(C)c1ccc2nc(-c3ccc(Oc4cccc(OCC5CC5)c4)nc3)oc2c1 (stereo unspecified) landed at 6880
